Cited source for all entries: the supplement of paper PMC6555819

# Test system: PPARg:RXRa IVT, anti-PPARg (NR concentration 270 nM, RXRa partner concentration 90 nM)
# ASSAY EXPLANATION: PBM binding z-score (relative to random genomic background probes); higher = stronger binding; sequences stand for … in GC…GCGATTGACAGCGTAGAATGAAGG
MEASURED ATTRIBUTE: PBM binding z-score
Provide a numeric answer; units are not to be included.

Give the measured PBM binding z-score of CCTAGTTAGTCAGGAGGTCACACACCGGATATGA .
2.35

If you can, please state the reported PBM binding z-score value of AGTCAAAGCTCACTAGGTAACGTAAGATTCAGCT .
2.79

Entry under review: CGTCAAAGTTCAACTATGGTAACGTAAAGCACGC . Reported PBM binding z-score?
1.9

Quick one: PBM binding z-score for ATATGTAGGTTTAGGGTCATTCAGGTTGGTTCGC ?
3.81

Would you kindly share the measured PBM binding z-score for TCTTGTTGGTCACGGAGGTCACACACGACGGGTA ?
4.57
